experiment.notes: PC3 cell line toxicity (Cell titer Glo viability)
Format: cell-based
conditions: human, PC3 prostate adenocarcinoma cells; PC3, 0.041 uM, 72 h
property: viability at 72 h, 0.041 µM (%)
One number for each entry, in %.

Return reported viability at 72 h, 0.041 µM; argument: CN[C@@H]1C[C@H]2O[C@@](C)([C@@H]1OC)n1c3ccccc3c3c4c(c5c6ccccc6n2c5c31)C(=O)NC4 [Staurosporine, staurosporine, reference compound] 12.7

###

system: recombinant human LOX-5 (Homo sapiens, UniProt P09917)
Construct: expressed in insect cells (Amino Acids 1-674) was obtained from Cayman; purchased Cayman 60402; host or cells: insect cells
Sequence (P09917 whole entry, the tested form may be a part): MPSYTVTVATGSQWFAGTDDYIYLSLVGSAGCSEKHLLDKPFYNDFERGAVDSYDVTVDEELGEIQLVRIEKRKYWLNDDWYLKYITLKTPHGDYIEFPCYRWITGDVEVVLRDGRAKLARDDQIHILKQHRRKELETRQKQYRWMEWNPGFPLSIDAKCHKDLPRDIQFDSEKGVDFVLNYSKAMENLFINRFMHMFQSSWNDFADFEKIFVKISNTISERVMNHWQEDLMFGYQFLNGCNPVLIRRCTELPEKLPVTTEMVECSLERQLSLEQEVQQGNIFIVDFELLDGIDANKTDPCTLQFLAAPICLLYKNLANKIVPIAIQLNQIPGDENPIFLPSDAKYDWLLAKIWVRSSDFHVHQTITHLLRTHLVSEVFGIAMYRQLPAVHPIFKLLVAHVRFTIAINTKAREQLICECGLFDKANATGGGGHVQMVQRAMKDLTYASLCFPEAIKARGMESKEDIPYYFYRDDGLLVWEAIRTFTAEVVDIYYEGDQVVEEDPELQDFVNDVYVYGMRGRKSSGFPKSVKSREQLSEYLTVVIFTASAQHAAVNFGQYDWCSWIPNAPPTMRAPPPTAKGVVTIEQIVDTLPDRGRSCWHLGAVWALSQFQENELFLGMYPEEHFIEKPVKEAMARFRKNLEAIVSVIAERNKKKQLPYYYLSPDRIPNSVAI
experiment.notes: Biochemical LOX-5 assay
conditions: recombinant enzyme, 3 uM AA; read-out: 5-Lox inhibitory activity IC50
Method: […] Next, the 2× substrate was prepared to comprise 6 uM arachidonic acid and 20 uM ATP in the assay buffer. […] The plate was read on Synergy Neo2 in fluorescence mode: excitation 485 nm, emission 530 nm. % inhibition and the resulting IC50 was calculated for the compound using the following equation: [formula] • where RFU100% is fluorescence in control samples without compound, RFU0% is fluorescence in control samples without LOX-5, and RFUcompound fluorescence in a sample with compound. […]
Provide the recorded pIC50 for the entries that follow.
One number for each entry, as −log10 of the molar value.

>>> observed_value("CCCCCC1=C(NCCC)C(=O)C2=C(OC(C)(CCC=C(C)C)C=C2)C1=O (stereo not shown)")
5.93
>>> observed_value("CCCCCC1=CC(=O)C2=C(OC(C)(CCC=C(C)C)C=C2)C1=O (stereo not shown)")
6.57
>>> observed_value("CCCCCC1=CC(=O)C2=C(O[C@](C)(CCC=C(C)C)C=C2)C1=O")
6.64
>>> observed_value("CCCCCc1cc(O)c2c(c1O)OC(C)(CCC=C(C)C)C=C2 (stereo not shown)")
6.60

Turning now to a further record.
Return reported pIC50; argument: CCCCCc1cc(OC(C)=O)c2c(c1OC(C)=O)OC(C)(CCC=C(C)C)C=C2 (stereo not shown) 5.57

###

System: IFN gamma
experiment.notes: IFN gamma secretion assay in human PBMCs (PHA-M-stimulated, ELISA)
Assay type: cell-based
conditions: PBMC, PHA-M 10 ug/mL 40 hr, read-out: IFNγ inhibitory activity IC50
Lab note - cut at 2000 nM for IC50: Criterion met if strictly below, Criterion not met if not.

>>> cat("CCCCCC1=CC(=O)C2=C(OC(C)(CCC=C(C)C)C=C2)C1=O (centres unmarked) [Formula II]")
"Criterion met"

is_below(IC50, 2000 nM) for CCCCCC1=C(NCC)C(=O)C2=C(OC(C)(CCC=C(C)C)C=C2)C1=O (centres unmarked) [Formula XXVIII] ? Criterion not met

is_below(IC50, 2000 nM) for CC(C)=CCCC1(C)C=CC2=C(O1)C(=O)c1ccccc1C2=O (centres unmarked) [Formula XXVII] ? Criterion not met

is_below(IC50, 2000 nM) for CCCCCC1=C(NCCC)C(=O)C2=C(OC(C)(CCC=C(C)C)C=C2)C1=O (centres unmarked) [Formula XXV] ? Criterion not met

is_below(IC50, 2000 nM) for CCCCCC1=CC(=O)C2=C(O[C@](C)(CCC=C(C)C)C=C2)C1=O [Formula XXVI] ? Criterion met

is_below(IC50, 2000 nM) for CCCCCc1cc(OC(C)=O)c2c(c1OC(C)=O)OC(C)(CCC=C(C)C)C=C2 (centres unmarked) [Formula XXIII] ? Criterion met

is_below(IC50, 2000 nM) for CCCCCc1cc(OC)c2c(c1OC)OC(C)(CCC=C(C)C)C=C2 (centres unmarked) [Formula XXIV] ? Criterion not met
